# tested-system: Epidermal growth factor receptor (Homo sapiens)
# Sequence (P00533 whole entry): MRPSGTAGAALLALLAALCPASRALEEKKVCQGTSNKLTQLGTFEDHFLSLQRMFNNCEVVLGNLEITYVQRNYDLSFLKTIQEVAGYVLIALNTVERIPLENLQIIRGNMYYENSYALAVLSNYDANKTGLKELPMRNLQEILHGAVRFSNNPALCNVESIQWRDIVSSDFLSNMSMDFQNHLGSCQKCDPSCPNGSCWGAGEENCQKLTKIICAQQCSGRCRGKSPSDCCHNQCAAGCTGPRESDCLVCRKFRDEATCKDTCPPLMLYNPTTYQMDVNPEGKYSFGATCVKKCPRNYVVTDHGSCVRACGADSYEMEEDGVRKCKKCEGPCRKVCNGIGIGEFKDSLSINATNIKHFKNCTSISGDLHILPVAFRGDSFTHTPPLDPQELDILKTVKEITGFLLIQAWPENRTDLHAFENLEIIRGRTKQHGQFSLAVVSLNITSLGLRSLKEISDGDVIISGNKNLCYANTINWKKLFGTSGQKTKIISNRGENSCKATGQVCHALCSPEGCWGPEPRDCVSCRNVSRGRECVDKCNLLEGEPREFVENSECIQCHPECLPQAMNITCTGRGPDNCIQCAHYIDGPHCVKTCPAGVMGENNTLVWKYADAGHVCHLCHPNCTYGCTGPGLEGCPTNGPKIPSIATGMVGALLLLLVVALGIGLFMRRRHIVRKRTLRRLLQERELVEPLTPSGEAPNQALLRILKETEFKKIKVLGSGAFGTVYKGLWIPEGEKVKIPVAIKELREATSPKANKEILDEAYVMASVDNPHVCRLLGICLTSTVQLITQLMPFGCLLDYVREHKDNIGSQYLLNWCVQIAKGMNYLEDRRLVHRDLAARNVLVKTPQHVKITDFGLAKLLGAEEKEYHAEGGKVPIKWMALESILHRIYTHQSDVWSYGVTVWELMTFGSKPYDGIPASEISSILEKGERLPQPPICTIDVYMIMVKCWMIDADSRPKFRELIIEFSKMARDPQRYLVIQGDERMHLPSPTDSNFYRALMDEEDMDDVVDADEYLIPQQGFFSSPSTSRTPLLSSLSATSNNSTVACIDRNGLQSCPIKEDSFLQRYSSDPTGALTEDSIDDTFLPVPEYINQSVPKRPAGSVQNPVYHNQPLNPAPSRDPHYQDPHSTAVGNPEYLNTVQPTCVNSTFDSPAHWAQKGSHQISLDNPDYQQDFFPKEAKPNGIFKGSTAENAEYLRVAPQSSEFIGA
# experiment-summary: Inhibition of recombinant human N-terminal GST-tagged wild-type EGFR (695 to end residues) expressed in baculovirus infected Sf9 insect cells using poly (Glu,Tyr)4:1 as substrate pretreated for 60 mins followed by substrate addition after 1 hr by ADP-Glo luminescence assay
Documented IC50 across a set of molecules
metric-name: IC50 (nM)

cpd_smiles=C=CC(=O)N1CCc2ccc(-n3c(=O)ccc4cnc5ccc(-c6cnn(C)c6)cc5c43)cc21 tested_system="Epidermal growth factor receptor (Homo sapiens)" metric_name=IC50 result_comparator== reported_measurement=874
cpd_smiles=C=CC(=O)Nc1cc(Nc2cc(-c3cccc(NC(=O)c4ccc(C(C)(C)C)cc4)c3C)cn(C)c2=O)ccc1C(=O)N1CCOCC1 tested_system="Epidermal growth factor receptor (Homo sapiens)" metric_name=IC50 result_comparator=> reported_measurement=10000
cpd_smiles=C=CC(=O)Nc1cccc(Nc2nc(Nc3ccc(OCCOC)cc3)ncc2F)c1 tested_system="Epidermal growth factor receptor (Homo sapiens)" metric_name=IC50 result_comparator== reported_measurement=442
cpd_smiles=C=CC(=O)Nc1cc(Nc2cc(-c3cccc(NC(=O)c4ccc(N(C)C)cc4)c3C)cn(C)c2=O)ccc1C(=O)N1CCOCC1 tested_system="Epidermal growth factor receptor (Homo sapiens)" metric_name=IC50 result_comparator== reported_measurement=5880
cpd_smiles=C=CC(=O)Nc1cc(Nc2cc(-c3cccc(NC(=O)c4cc5c(s4)CCCC5)c3C)cn(C)c2=O)ccc1C(=O)N1CCOCC1 tested_system="Epidermal growth factor receptor (Homo sapiens)" metric_name=IC50 result_comparator== reported_measurement=6860
cpd_smiles=C=CC(=O)Nc1cccc(Nc2ncc(NC(=O)c3cc(NC(=O)c4cccc(C(F)(F)F)c4)ccc3C)cn2)c1 tested_system="Epidermal growth factor receptor (Homo sapiens)" metric_name=IC50 result_comparator== reported_measurement=72

---

Documented Tmax across a set of compounds
# experiment-summary: Tmax in Sprague-Dawley rat at 10 mg/kg, po by LC-MS/MS method
# Assay type: ADME, organism-based
# experimental-conditions: in vivo
metric-name: Tmax (min)

cpd_smiles=C=CC(=O)Nc1cc(Nc2cc(-c3cccc(NC(=O)c4ccc(C(C)(C)C)cc4)c3C)cn(C)c2=O)ccc1C(=O)N1CCOCC1 value_units=min reported_measurement=30
cpd_smiles=C=CC(=O)Nc1cc(Nc2cc(-c3cccc(NC(=O)c4ccc(N(C)C)cc4)c3C)cn(C)c2=O)ccc1C(=O)N1CCOCC1 value_units=min reported_measurement=4.98
cpd_smiles=C=CC(=O)Nc1cc(Nc2cc(-c3cccc(NC(=O)c4cc5c(s4)CCCC5)c3C)cn(C)c2=O)ccc1C(=O)N1CCOCC1 value_units=min reported_measurement=90

---

# tested-system: Tyrosine-protein kinase BTK (Homo sapiens, UniProt Q06187)
# Sequence (Q06187 whole entry): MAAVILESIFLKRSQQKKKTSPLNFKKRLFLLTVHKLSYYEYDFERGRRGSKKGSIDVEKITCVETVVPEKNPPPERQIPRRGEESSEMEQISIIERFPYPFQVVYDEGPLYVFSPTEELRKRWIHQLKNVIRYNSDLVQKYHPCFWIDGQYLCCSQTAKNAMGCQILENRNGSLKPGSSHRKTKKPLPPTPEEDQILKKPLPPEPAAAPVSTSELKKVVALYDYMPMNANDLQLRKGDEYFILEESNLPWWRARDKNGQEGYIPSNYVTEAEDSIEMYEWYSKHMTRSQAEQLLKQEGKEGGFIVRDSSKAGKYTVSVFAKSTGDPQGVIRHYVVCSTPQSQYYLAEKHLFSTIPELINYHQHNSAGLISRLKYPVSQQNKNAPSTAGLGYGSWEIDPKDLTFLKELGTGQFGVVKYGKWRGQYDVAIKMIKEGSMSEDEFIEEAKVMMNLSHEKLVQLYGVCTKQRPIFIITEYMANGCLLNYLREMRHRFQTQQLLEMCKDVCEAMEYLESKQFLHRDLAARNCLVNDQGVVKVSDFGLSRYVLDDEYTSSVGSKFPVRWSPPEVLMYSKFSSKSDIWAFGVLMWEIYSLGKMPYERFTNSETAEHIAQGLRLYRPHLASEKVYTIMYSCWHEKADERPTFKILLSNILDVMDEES
# experiment-summary: Inhibition of full length recombinant human N-terminal His tagged […] expressed in baculovirus infected Sf9 insect cells using poly (Glu,Tyr)4:1 as substrate pretreated for 60 mins followed by substrate addition after 1 hr by ADP-Glo luminescence assay
Documented IC50 across a set of molecules
metric-name: IC50

molecule=C=CC(=O)Nc1cc(Nc2cc(-c3cccc(NC(=O)c4ccc(C)cc4)c3C)cn(C)c2=O)ccc1C(=O)N1CCOCC1 reported_measurement="0.114 µM"
molecule=C=CC(=O)Nc1cc(Nc2cc(-c3cccc(NC(=O)c4ccc(C(C)(C)C)cc4)c3C)cn(C)c2=O)ccc1C reported_measurement="0.365 µM"
molecule="C=CC(=O)NC1CCCN(c2cc(-c3cccc(NC(=O)c4ccc(N(C)C)cc4)c3C)cn(C)c2=O)C1 (stereo not drawn)" reported_measurement="> 10 µM"
molecule=C=CC(=O)Nc1cc(Nc2cc(-c3cccc(NC(=O)c4ccc(CC)cc4)c3C)cn(C)c2=O)ccc1C(=O)N1CCOCC1 reported_measurement="0.21 µM"
molecule=C=CC(=O)Nc1cccc(Nc2cc(-c3cccc(NC(=O)c4ccc(C(C)(C)C)cc4)c3C)cn(C)c2=O)c1 reported_measurement="> 10 µM"
molecule=C=CC(=O)Nc1cc(Nc2cc(-c3cccc(NC(=O)c4ccc5c(c4)OCO5)c3C)cn(C)c2=O)ccc1C(=O)N1CCOCC1 reported_measurement="0.282 µM"
molecule=C=CC(=O)N1CCC(Nc2cc(-c3cccc(NC(=O)c4ccc(N(C)C)cc4)c3C)cn(C)c2=O)CC1 reported_measurement="> 10 µM"
molecule=C=CC(=O)Nc1cc(Nc2cc(-c3cccc(NC(=O)c4ccc5c(c4)CCCC5)c3C)cn(C)c2=O)ccc1C(=O)N1CCOCC1 reported_measurement="0.057 µM"

---

# tested-system: Tyrosine-protein kinase BTK (Homo sapiens, UniProt Q06187)
# experiment-summary: Inhibition of BTK auto-phosphorylation at Y223 in human Pfeiffer cells measured after 4 hrs by chemiluminescent assay
pEC50: −log10 of the molar value.
metric-name: pEC50

cpd_smiles=C=CC(=O)Nc1cc(Nc2cc(-c3cccc(NC(=O)c4ccc(C(C)(C)C)cc4)c3C)cn(C)c2=O)ccc1C(=O)N1CCOCC1 reported_measurement="> 7.52"

---

Documented EC50 across a set of molecules
# tested-system: Tyrosine-protein kinase BTK (Homo sapiens, UniProt Q06187, C481S)
# Sequence (Q06187 2-659 C481S limits assumed): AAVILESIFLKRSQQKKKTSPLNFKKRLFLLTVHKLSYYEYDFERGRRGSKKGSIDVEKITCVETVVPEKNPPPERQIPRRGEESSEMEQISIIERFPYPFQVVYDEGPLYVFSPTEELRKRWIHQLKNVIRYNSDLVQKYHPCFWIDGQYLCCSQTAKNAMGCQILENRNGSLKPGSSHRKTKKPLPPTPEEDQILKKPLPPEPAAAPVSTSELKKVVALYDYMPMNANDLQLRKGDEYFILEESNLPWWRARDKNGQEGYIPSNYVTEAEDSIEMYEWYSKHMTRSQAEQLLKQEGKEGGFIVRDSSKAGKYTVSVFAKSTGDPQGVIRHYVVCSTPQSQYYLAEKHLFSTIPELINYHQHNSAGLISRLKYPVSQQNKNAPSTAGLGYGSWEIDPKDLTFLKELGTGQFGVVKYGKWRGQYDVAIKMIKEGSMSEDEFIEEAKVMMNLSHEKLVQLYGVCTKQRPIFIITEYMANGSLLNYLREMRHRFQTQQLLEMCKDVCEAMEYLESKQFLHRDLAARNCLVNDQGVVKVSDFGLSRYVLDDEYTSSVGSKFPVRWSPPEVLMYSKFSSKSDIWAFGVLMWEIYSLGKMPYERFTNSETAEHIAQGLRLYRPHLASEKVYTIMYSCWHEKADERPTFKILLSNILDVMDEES
# experiment-summary: Irreversible inhibition of recombinant full length 3'-FLAG-tagged BTK C481S mutant (unknown origin) expressed in HEK293T cells assessed as reduction in Y223 phosphorylation measured after 4 hrs by Western blot method
metric-name: EC50

cpd_smiles=CCC(=O)Nc1cc(Nc2cc(-c3cccc(NC(=O)c4ccc(C(C)(C)C)cc4)c3C)cn(C)c2=O)ccc1C(=O)N1CCOCC1 metric_name=EC50 reported_measurement="> 100 nM"
cpd_smiles=C=CC(=O)Nc1cc(Nc2cc(-c3cccc(NC(=O)c4ccc(C(C)(C)C)cc4)c3C)cn(C)c2=O)ccc1C(=O)N1CCOCC1 metric_name=EC50 reported_measurement="> 100 nM"

---

# System: SU-DHL-2
# experiment-summary: Growth inhibition of human SU-DHL-2 cells
# Type: functional
# experimental-conditions: Homo sapiens, SU-DHL-2
metric-name: GI50 (nM)

cpd_smiles=C=CC(=O)Nc1cc(Nc2cc(-c3cccc(NC(=O)c4ccc(C(C)(C)C)cc4)c3C)cn(C)c2=O)ccc1C(=O)N1CCOCC1 tested_system=SU-DHL-2 metric_name=GI50 result_comparator== reported_measurement=3000
cpd_smiles=C=CC(=O)Nc1cc(Nc2cc(-c3cccc(NC(=O)c4cc5c(s4)CCCC5)c3C)cn(C)c2=O)ccc1C(=O)N1CCOCC1 tested_system=SU-DHL-2 metric_name=GI50 result_comparator== reported_measurement=1800
cpd_smiles=C=CC(=O)Nc1cc(Nc2cc(-c3cccc(NC(=O)c4ccc(N(C)C)cc4)c3C)cn(C)c2=O)ccc1C(=O)N1CCOCC1 tested_system=SU-DHL-2 metric_name=GI50 result_comparator== reported_measurement=2600
cpd_smiles=CCC(=O)Nc1cc(Nc2cc(-c3cccc(NC(=O)c4ccc(C(C)(C)C)cc4)c3C)cn(C)c2=O)ccc1C(=O)N1CCOCC1 tested_system=SU-DHL-2 metric_name=GI50 result_comparator=> reported_measurement=10000

---

# tested-system: Tyrosine-protein kinase BTK (Homo sapiens, UniProt Q06187)
# experiment-summary: Inhibition of full length recombinant human N-terminal His tagged […] expressed in baculovirus infected Sf9 insect cells using poly (Glu,Tyr)4:1 as substrate pretreated for 60 mins followed by substrate addition after 1 hr by ADP-Glo luminescence assay
pIC50: −log10 of the molar value.
So basically: pIC50 at 7 or higher? That is YES. Lower than 7? That is NO.

compound=C=CC(=O)Nc1cc(Nc2cc(-c3cccc(NC(=O)c4ccc(C(C)C)cc4)c3C)cn(C)c2=O)ccc1C(=O)N1CCOCC1 tested_system="Tyrosine-protein kinase BTK (Homo sapiens, UniProt Q06187)" category_label=YES
compound=C=CC(=O)Nc1cc(Nc2cc(-c3cccc(NC(=O)c4ccc(C(C)(C)C)cc4)c3C)cn(C)c2=O)ccc1C(=O)OC tested_system="Tyrosine-protein kinase BTK (Homo sapiens, UniProt Q06187)" category_label=NO
compound=C=CC(=O)Nc1cc(Nc2cc(-c3cccc(NC(=O)c4ccc(N(C)C)cc4)c3C)cn(C)c2=O)ccc1C(=O)N(CCOCC)CCOCC tested_system="Tyrosine-protein kinase BTK (Homo sapiens, UniProt Q06187)" category_label=NO
compound=C=CC(=O)Nc1cc(Nc2cc(-c3cccc(NC(=O)c4cc5c(s4)CCCC5)c3C)cn(C)c2=O)ccc1C(=O)N1CCOCC1 tested_system="Tyrosine-protein kinase BTK (Homo sapiens, UniProt Q06187)" category_label=YES
compound=C=CC(=O)Nc1cc(Nc2cc(-c3cccc(NC(=O)c4ccc(C(C)(C)C)cc4)c3C)cn(C)c2=O)ccc1C(=O)NC1CC1 tested_system="Tyrosine-protein kinase BTK (Homo sapiens, UniProt Q06187)" category_label=YES
compound=C=CC(=O)Nc1ccc(NC(=O)c2ccc(C(C)(C)C)cc2)c(C)c1-c1cc(Nc2ccc(C(=O)N3CCOCC3)cc2)c(=O)n(C)c1 tested_system="Tyrosine-protein kinase BTK (Homo sapiens, UniProt Q06187)" category_label=NO
compound=C=CC(=O)Nc1cc(C(=O)N2CCOCC2)ccc1Nc1cc(-c2cccc(NC(=O)c3ccc(C(C)(C)C)cc3)c2C)cn(C)c1=O tested_system="Tyrosine-protein kinase BTK (Homo sapiens, UniProt Q06187)" category_label=NO
compound=C=CC(=O)Nc1cc(Nc2cc(-c3cccc(NC(=O)c4ccc(C(C)(C)C)cc4)c3C)cn(C)c2=O)ccc1C(=O)N1CCOCC1 tested_system="Tyrosine-protein kinase BTK (Homo sapiens, UniProt Q06187)" category_label=YES
compound=C=CC(=O)Nc1cc(Nc2cc(-c3cccc(NC(=O)c4cc(OC)c(OC)c(OC)c4)c3C)cn(C)c2=O)ccc1C(=O)N1CCOCC1 tested_system="Tyrosine-protein kinase BTK (Homo sapiens, UniProt Q06187)" category_label=NO
compound=C=CC(=O)Nc1cc(Nc2cc(-c3cccc(NC(=O)c4ccccc4)c3C)cn(C)c2=O)ccc1C(=O)N1CCOCC1 tested_system="Tyrosine-protein kinase BTK (Homo sapiens, UniProt Q06187)" category_label=NO
compound=C=CC(=O)Nc1cc(Nc2cc(-c3cccc(NC(=O)c4cccc(C(F)(F)F)c4)c3C)cn(C)c2=O)ccc1C(=O)N1CCOCC1 tested_system="Tyrosine-protein kinase BTK (Homo sapiens, UniProt Q06187)" category_label=NO
compound="C=CC(=O)N1CCCC(Nc2cc(-c3cccc(NC(=O)c4ccc(N(C)C)cc4)c3C)cn(C)c2=O)C1 (stereo not given)" tested_system="Tyrosine-protein kinase BTK (Homo sapiens, UniProt Q06187)" category_label=NO
compound=C=CC(=O)NC1CCN(c2cc(-c3cccc(NC(=O)c4ccc(N(C)C)cc4)c3C)cn(C)c2=O)CC1 tested_system="Tyrosine-protein kinase BTK (Homo sapiens, UniProt Q06187)" category_label=NO
